Reference source for all entries: ChEMBL document CHEMBL3792312

Would you kindly list MIC for each of these compounds?
# System: Mycobacterium tuberculosis
# method_description: Antitubercular activity against dormant Mycobacterium tuberculosis H37Ra after 12 days by XTT-Menadione assay
# Type: functional, organism-based
# experimental_context: 288 h
Please give a number only; it is taken to be in µg/mL.

query: Look up and report measured MIC (Mycobacterium tuberculosis) for the following compound: "Cc1cnc(C(=O)NN2C(=O)CS[C@H]2c2ccc(N(C)C)cc2)cn1"
result: 28.4

query: Look up and report measured MIC (Mycobacterium tuberculosis) for the following compound: "COc1cc([C@@H]2SCC(=O)N2NC(=O)c2cnc(C)cn2)ccc1O"
result: 27.9

query: Look up and report measured MIC (Mycobacterium tuberculosis) for the following compound: "Cc1cnc(C(=O)NN2C(=O)CS[C@@H]2c2cccc([N+](=O)[O-])c2)cn1"
result: 29

query: Look up and report measured MIC (Mycobacterium tuberculosis) for the following compound: "O=C(NN1C(=O)CS[C@@H]1c1ccc([N+](=O)[O-])cc1)c1cnccn1"
result: 29

query: Look up and report measured MIC (Mycobacterium tuberculosis) for the following compound: "CO[C@H]1/C=C/O[C@@]2(C)Oc3c(C)c(O)c4c(O)c(c(/C=N/N5CCN(C)CC5)c(O)c4c3C2=O)NC(=O)/C(C)=C\C=C\[C@H](C)[C@H](O)[C@@H](C)[C@@H](O)[C@@H](C)[C@H](OC(C)=O)[C@@H]1C"
result: 0.0021

query: Look up and report measured MIC (Mycobacterium tuberculosis) for the following compound: "C[C@H]1COC2(CCN(c3nc(=O)c4cc(C(F)(F)F)cc([N+](=O)[O-])c4s3)CC2)O1"
result: 0.003

query: Look up and report measured MIC (Mycobacterium tuberculosis) for the following compound: "CCOc1cc([C@@H]2SCC(=O)N2NC(=O)c2cnc(C)cn2)ccc1O"
result: 26.6

---

# System: Staphylococcus aureus
# method_description: Antibacterial activity against Staphylococcus aureus at 30 ug after 12 hrs
# Assay type: functional
Would you kindly list inhibition (INH) for each of these compounds?
Please give a number only; it is taken to be in %.

query: Check the records and state inhibition (INH) for Nc1nccnc1C(=O)NN1C(=O)CSC1c1ccccc1 (stereo unspecified)
result: -1.45

query: Check the records and state inhibition (INH) for "Nc1nccnc1C(=O)NN1C(=O)CS[C@H]1c1ccc([N+](=O)[O-])cc1"
result: -21.02

query: Check the records and state inhibition (INH) for "CCOc1cc([C@@H]2SCC(=O)N2NC(=O)c2cnc(C)cn2)ccc1O"
result: 32.72

query: Check the records and state inhibition (INH) for "O=C(NN1C(=O)CS[C@@H]1c1ccc([N+](=O)[O-])cc1)c1cnccn1"
result: -24.9

query: Check the records and state inhibition (INH) for "Cc1cnc(C(=O)NN2C(=O)CS[C@@H]2c2cccc([N+](=O)[O-])c2)cn1"
result: 17.56

query: Check the records and state inhibition (INH) for "O=C(NN1C(=O)CS[C@@H]1c1ccc(Cl)cc1)c1cnccn1"
result: -47.91

query: Check the records and state inhibition (INH) for Cc1cnc(C(=O)NN2C(=O)CSC2c2ccc(Cl)cc2)cn1 (stereo unspecified)
result: 16.66

query: Check the records and state inhibition (INH) for Nc1nccnc1C(=O)NN1C(=O)CSC1c1ccc(Cl)cc1 (stereo unspecified)
result: -34.8

query: Check the records and state inhibition (INH) for CN(C)c1ccc(C2SCC(=O)N2NC(=O)c2nccnc2N)cc1 (stereo unspecified)
result: 56.34

query: Check the records and state inhibition (INH) for "COc1cc([C@@H]2SCC(=O)N2NC(=O)c2cnc(C)cn2)ccc1O"
result: -0.17

query: Check the records and state inhibition (INH) for Cc1cnc(C(=O)NN2C(=O)CSC2c2ccc(O)cc2)cn1 (stereo unspecified)
result: -4.04
